# run description: Stability of cannabinoid and Vitamin E components of Beverage 1 (AB White) stored at 8° C. and 21-25° C., LCMSMS over 570 days
# Assay type: physicochemical
# settings: beverage stored at 8° C., day 16
quantity name: Stability in AB White, 8° C. (content by LCMSMS) (µg/mL)
Number only, in µg/mL; omit the unit.

Observe how each entry below is paired with its result.
1) CCCCCc1cc(O)c2c(c1)OC(C)(CCC=C(C)C)C=C2 (stereo not shown) [CBC, cannabichromene] :: 0.320
2) CCCCCc1cc(O)c2c(c1)OC1(C)CCC3C1C2C3(C)C (stereo not shown) [CBL, cannabicyclol] :: 0.546
3) CCCCCc1cc(O)c2c(c1)OC(C)(C)c1ccc(C)cc1-2 [CBN, cannabinol] :: 2.77
4) CCCCCc1cc2c(c(O)c1C(=O)O)[C@@H]1C=C(C)CC[C@H]1C(C)(C)O2 [D9 THCA, delta-9-tetrahydrocannabinolic acid] :: 0.932

For this molecule ( CCCCCc1cc(O)c(C/C=C(\C)CCC=C(C)C)c(O)c1 [CBG, cannabigerol] ), measured Stability in AB White, 8° C. (content by LCMSMS) is 4.84

Lab book: Stability in AB White, 8° C. (content by LCMSMS) of C=C(C)[C@@H]1CCC(C)=C[C@H]1c1c(O)cc(CCC)cc1O [CBDV, cannabidivarin] noted as 0.148

The recorded Stability in AB White, 8° C. (content by LCMSMS) for entry CCCc1cc(O)c2c(c1)OC(C)(C)[C@@H]1CCC(C)=C[C@@H]21 [THCV, delta-9-tetrahydrocannabivarin] equals 3.57

GET /value?item= CCCCCc1cc(O)c2c(c1)OC(C)(C)[C@@H]1CCC(C)=C[C@@H]21 [D9 THC, delta-9-tetrahydrocannabinol, reference compound] &field=Stability in AB White, 8° C. (content by LCMSMS) returns 12.18

Record summary for C=C(C)[C@@H]1CCC(C)=C[C@H]1c1c(O)cc(CCCCC)c(C(=O)O)c1O [CBDA, cannabidiolic acid] : reported Stability in AB White, 8° C. (content by LCMSMS) = 1.73

Item: C=C(C)[C@@H]1CCC(C)=C[C@H]1c1c(O)cc(CCCCC)cc1O [CBD, cannabidiol, reference compound] | Stability in AB White, 8° C. (content by LCMSMS): 28.04

* * *

The following compounds are listed with their measured Stability in AB White, 8° C. (content by LCMSMS) values.
# run description: Stability of cannabinoid and Vitamin E components of Beverage 1 (AB White) stored at 8° C. and 21-25° C., LCMSMS over 570 days
# Type: physicochemical
# settings: beverage stored at 8° C., day 450
Give just the numeric value; µg/mL need not be written.

1. CCCCCc1cc(O)c2c(c1)OC(C)(C)[C@@H]1CCC(C)=C[C@@H]21 [D9 THC, delta-9-tetrahydrocannabinol, reference compound] :: 11.80
2. CCCc1cc(O)c2c(c1)OC(C)(C)[C@@H]1CCC(C)=C[C@@H]21 [THCV, delta-9-tetrahydrocannabivarin] :: 3.44
3. CCCCCc1cc(O)c2c(c1)OC(C)(C)c1ccc(C)cc1-2 [CBN, cannabinol] :: 2.70
4. C=C(C)[C@@H]1CCC(C)=C[C@H]1c1c(O)cc(CCC)cc1O [CBDV, cannabidivarin] :: 0.145
5. CCCCCc1cc2c(c(O)c1C(=O)O)[C@@H]1C=C(C)CC[C@H]1C(C)(C)O2 [D9 THCA, delta-9-tetrahydrocannabinolic acid] :: 0.923

Now look at this one.
What the record says about CCCCCc1cc(O)c2c(c1)OC(C)(CCC=C(C)C)C=C2 (stereo not drawn) [CBC, cannabichromene] : Stability in AB White, 8° C. (content by LCMSMS) is 0.312
